# assay method text: Plasma pharmacokinetics in mice after single intravenous cassette doses
# test context: male, Hsd:ICR (CD-1), mouse, plasma, intravenous, 3 mg/kg, Mean Conc. in plasma, mice, Cassette #3, single 15 mg/kg iv cassette dose (3 mg/kg/compound), 1 h

>  <compound>
NC1CCC(Nc2nc(NCCCc3ccccc3)c3ncn(C4CCCC4)c3n2)CC1 (stereo not shown) [MDL 107167, reference compound]

>  <readout units>
ng/mL

>  <concentration at 1 h>
108

$$$$

* * *

# assay method text: Plasma pharmacokinetics in mice after single intravenous cassette doses
# test context: male, Hsd:ICR (CD-1), mouse, plasma, iv, 3 mg/kg, Cmax (highest measured value), mouse plasma, iv Cassette #2, 3 mg/kg/compound (18 mg/kg total dose)

>  <molecule>
NC1CCC(Nc2nc(NCCCc3ccccc3)c3ncn(C4CCCC4)c3n2)CC1 (stereo not shown) [MDL 107167, reference compound]

>  <Cmax / ng/mL>
472

$$$$
